Ref: patent US20260241012A1

# experimental_system: N-terminal HiBiT tagged BCL6 (Homo sapiens, UniProt P41182)
# Construct: expressed in transfected cells; host or cells: HT1080 (ATCC CCL-121), stably transduced with lentivirus pLV-UBC-N-HiBiT-BCL6-PGK-puro
# test_protocol: HiBiT based degradation assay
# Format: cell-based
# condition_description: HT1080 cells expressing N-terminal HiBiT tagged BCL6; 5 hours of incubation; four-parameter logistic model; read-out: EC50 (5 hr)
value_type: DC50

Entry CNC(=O)COc1cc2cc(Nc3nc(N4CCN(C(=O)N5CCC(c6cccc7c(C8CCC(=O)NC8=O)nn(C)c67)CC5)CC4)ncc3Cl)cnc2n(C(C)C)c1=O (centres unmarked) under N-terminal HiBiT tagged BCL6 (Homo sapiens, UniProt P41182) had DC50 of < 10 nM

Entry CNC(=O)COc1cc2cc(Nc3nc(N4CCN(CC5CCC6(CC5)CN(c5cccc7c(C8CCC(=O)NC8=O)nn(C)c57)C6)CC4)ncc3Cl)cnc2n(C)c1=O (centres unmarked) under N-terminal HiBiT tagged BCL6 (Homo sapiens, UniProt P41182) had DC50 of 10 to 100 nM
